Biological target: UniProt:P03951
Sequence (P03951 388-625 limits assumed): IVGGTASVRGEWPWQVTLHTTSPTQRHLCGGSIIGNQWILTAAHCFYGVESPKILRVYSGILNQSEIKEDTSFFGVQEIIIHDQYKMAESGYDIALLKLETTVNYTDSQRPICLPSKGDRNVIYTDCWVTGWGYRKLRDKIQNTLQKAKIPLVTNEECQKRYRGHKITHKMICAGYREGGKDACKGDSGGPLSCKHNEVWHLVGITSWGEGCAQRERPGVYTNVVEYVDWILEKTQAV
Sequence (P03951 19-387 partner limits assumed): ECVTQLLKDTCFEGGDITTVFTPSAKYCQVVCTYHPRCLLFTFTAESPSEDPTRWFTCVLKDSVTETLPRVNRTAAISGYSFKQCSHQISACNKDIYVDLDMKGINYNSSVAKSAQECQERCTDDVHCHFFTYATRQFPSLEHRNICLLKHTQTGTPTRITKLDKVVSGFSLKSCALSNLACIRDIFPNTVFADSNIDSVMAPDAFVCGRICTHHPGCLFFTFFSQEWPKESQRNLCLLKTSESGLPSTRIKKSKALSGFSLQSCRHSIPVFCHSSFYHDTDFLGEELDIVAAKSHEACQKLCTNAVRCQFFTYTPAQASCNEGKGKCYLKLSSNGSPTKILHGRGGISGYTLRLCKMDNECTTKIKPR
Counter-ions that a name gives are not always drawn.

COMPOUND	Ki, nM
NCc1ccc2c(c1)CCN([C@@H](Cc1ccccc1)C(=O)Nc1ccc3[nH]ncc3c1)C2=O	246
COC(=O)Nc1ccc(-c2[nH]c([C@H](Cc3ccccc3)N3CCc4cc(CN)ccc4C3=O)nc2Cl)cc1	14
CC(C)COC(=O)Nc1ccc(-c2[nH]c([C@H](Cc3ccccc3)N3CCc4cc(CN)ccc4C3=O)nc2Cl)cc1	435
NCc1ccc2c(c1)CCN([C@@H](Cc1ccccc1)C(=O)Nc1cccc(F)c1)C2=O	1080
Cc1ccc(-c2ccc(NC(=O)[C@H](Cc3ccccc3)N3CCc4cc(CN)ccc4C3=O)cc2)o1	1080
COC(=O)Nc1ccc(-c2cnc([C@H](Cc3ccccc3)N3CCc4c(ccc(CN)c4C4CC4)C3=O)[nH]2)cc1 [Example 29, 2,2,2-trifluoroacetate]	198
NCc1ccc2c(c1)CCN([C@@H](Cc1ccccc1)C(=O)Nc1ccc(-c3c[nH]cn3)cc1)C2=O	68.9
NCc1ccc2c(c1)CCN([C@@H](Cc1ccccc1)C(=O)Nc1ccc3c(N)n[nH]c3c1)C2=O	151
COC(=O)Nc1ccc(-c2cnc([C@H](Cc3ccccc3)N3CCc4cc(CN)ccc4C3=O)[nH]2)cc1 [Example 2, 2,2,2-TRIFLUOROACETATE]	116
NCc1ccc2c(c1)CCN([C@@H](Cc1ccccc1)c1ncc(-c3ccc4c(N)n[nH]c4c3)[nH]1)C2=O	53
NCc1ccc2c(c1)CCN([C@@H](Cc1ccccc1)C(=O)Nc1ccc(C(=O)O)cc1)C2=O [Example 1, trifluoroacetate]	44
Cc1nsc2ccc(NC(=O)[C@H](Cc3ccccc3)N3CCc4cc(CN)ccc4C3=O)cc12	1470
Cc1ncc(-c2ccc(NC(=O)[C@H](Cc3ccccc3)N3CCc4cc(CN)ccc4C3=O)cc2)o1	240
NCc1ccc2c(c1)CN([C@@H](Cc1ccccc1)C(=O)Nc1ccc(C(=O)O)cc1)C2=O	308
NCc1ccc2c(c1)CCN([C@@H](Cc1ccccc1)c1nc(Cl)c(-c3ccc(NC(=O)OC4CCCC4)cc3)[nH]1)C2=O	506
Cc1nc2ccc(NC(=O)[C@H](Cc3ccccc3)N3CCc4cc(CN)ccc4C3=O)cc2s1	284

Every entry's value here was drawn from patent US9676723B2.
